- tested_target: CBL-B (residues 36-427) (Homo sapiens, UniProt Q13191)
- Construct: Purified CBL-B (residues 36-427) and C-CBL (residues 46-435) proteins from baculovirus-infected insect cells; made in house; host or cells: baculovirus-infected insect cells
- assay_summary: Ligand Displacement Assay (LDA), HTRF competitive binding against BODIPY-labeled fluorescent tracer, CBL-B
- conditions_used: geometric mean of the number of tests, read-out: CBL-B Ki (nM) GMean
Please provide measured Ki for the entries that follow.
Reply with just the number (in nM).

Task: Recall the recorded Ki for C[C@@H](c1nc(C(F)(F)F)cc2c(-c3cccc([C@H](c4nncn4C)C4CCC4)c3)n[nH]c12)N1CC[C@H](O)C1 (single isomer, unassigned) [Example D71] with CBL-B (residues 36-427) (Homo sapiens, UniProt Q13191) and state it.
Result: 1.3

Task: Recall the recorded Ki for CC(NCCO)c1nc(C(F)(F)F)cc2c(-c3cccc([C@H](c4nncn4C)C4CCC4)c3)n[nH]c12 (single isomer, unassigned) [Example C42] with CBL-B (residues 36-427) (Homo sapiens, UniProt Q13191) and state it.
Result: 2.5

Task: Recall the recorded Ki for Cn1cnnc1CC1(c2cccc(-c3n[nH]c4cnc(C(F)(F)F)nc34)c2)COC1 with CBL-B (residues 36-427) (Homo sapiens, UniProt Q13191) and state it.
Result: 398

Task: Recall the recorded Ki for CC(NC1CCCC1)c1nc(C(F)(F)F)cc2c(-c3cccc([C@H](c4nncn4C)C4CCC4)c3)n[nH]c12 (stereo partly drawn) with CBL-B (residues 36-427) (Homo sapiens, UniProt Q13191) and state it.
Result: 0.4

Task: Recall the recorded Ki for C[C@H](N[C@@H]1CCC[C@@H]1O)c1nc(C(F)(F)F)cc2c(-c3cccc([C@H](c4nncn4C)C4CCC4)c3)n[nH]c12 (single isomer, unassigned) with CBL-B (residues 36-427) (Homo sapiens, UniProt Q13191) and state it.
Result: 0.9

Task: Recall the recorded Ki for C[C@H](N[C@H]1CCC(F)(F)C1)c1nc(C(F)(F)F)cc2c(-c3cccc(C4(Cc5nncn5C)COC4)c3)n[nH]c12 (single isomer, unassigned) with CBL-B (residues 36-427) (Homo sapiens, UniProt Q13191) and state it.
Result: 0.9

* * *

Please provide measured Kd for the entries that follow.
- tested_target: C-CBL (46-435) (Homo sapiens)
- Construct: N-terminal biotinylated WT CBL-B (36-427) and C-CBL (46-435) were captured on a streptavidin (SA) coated sensor chip
- assay_summary: Surface Plasmon Resonance (SPR) assay, binding affinity and kinetics, C-CBL
- conditions_used: SPR at 10° C., biotinylated C-CBL (46-435) on streptavidin chip; geometric mean; read-out: C-CBL SPR Kd (nM) GMean
Reply with just the number (in nM).

Task: Consider the compound C[C@H]1CCCN(Cc2nc(C(F)(F)F)cc3c(-c4cccc(C5(Cc6nncn6C)COC5)c4)n[nH]c23)C1 and give its measured Kd.
Result: 35.9

Task: Consider the compound Cn1cnnc1[C@@H](c1cccc(-c2n[nH]c3c(CN4C[C@H](O)[C@@H](O)C4)nc(C(F)(F)F)cc23)c1)C1CCC1 and give its measured Kd.
Result: 52.1

Task: Consider the compound CCNC(C)c1nc(C(F)(F)F)cc2c(-c3cccc([C@H](c4nncn4C)C4CCC4)c3)n[nH]c12 (single isomer, unassigned) [Example C90] and give its measured Kd.
Result: 169

Task: Consider the compound C[C@@H](N[C@@H]1CCC(F)(F)C1)c1nc(C(F)(F)F)cc2c(-c3cccc(C4(Cc5nncn5C)COC4)c3)n[nH]c12 (single isomer, unassigned) and give its measured Kd.
Result: 6.2

Task: Consider the compound CC(N[C@@H]1CCOC1)c1nc(C(F)(F)F)cc2c(-c3cccc(C4(Cc5nncn5C)COC4)c3)n[nH]c12 (single isomer, unassigned) [Example C85] and give its measured Kd.
Result: 82.5

Task: Consider the compound CN1CC[C@@H](Oc2nc(C(F)(F)F)cc3c(-c4cccc([C@H](c5nncn5C)C5CCC5)c4)n[nH]c23)C1 and give its measured Kd.
Result: 145

Task: Consider the compound Cn1cnnc1CC1(c2cccc(-c3n[nH]c4cnc(Cl)cc34)c2)COC1 and give its measured Kd.
Result: 180

Task: Consider the compound Cn1cnnc1[C@@H](c1cccc(-c2n[nH]c3c(CN[C@H]4CCC[C@@H]4O)nc(C(F)(F)F)cc23)c1)C1CCC1 and give its measured Kd.
Result: 49.9

Task: Consider the compound C[C@H](NC1CCC1)c1nc(C(F)(F)F)cc2c(-c3cccc(C4(Cc5nncn5C)COC4)c3)n[nH]c12 and give its measured Kd.
Result: 11.2

Task: Consider the compound C[C@H](c1nc(C(F)(F)F)cc2c(-c3cccc(C4(Cc5nncn5C)COC4)c3)n[nH]c12)N1CC(F)(F)C1 (single isomer, unassigned) and give its measured Kd.
Result: 184

Task: Consider the compound CN(C)Cc1nc(C(F)(F)F)cc2c(-c3cccc([C@H](c4nncn4C)C4CCC4)c3)n[nH]c12 and give its measured Kd.
Result: 213

Task: Consider the compound C[C@@H](N[C@H]1CC[C@@H]1O)c1nc(C(F)(F)F)cc2c(-c3cccc([C@H](c4nncn4C)C4CCC4)c3)n[nH]c12 (single isomer, unassigned) and give its measured Kd.
Result: 9.8

Task: Consider the compound CC(CN)c1nc(C(F)(F)F)cc2c(-c3cccc([C@H](c4nncn4C)C4CCC4)c3)n[nH]c12 (single isomer, unassigned) [Example K15] and give its measured Kd.
Result: 452
